- target.under.test: hCB1 (Homo sapiens)
- Sequence (P21554 whole entry): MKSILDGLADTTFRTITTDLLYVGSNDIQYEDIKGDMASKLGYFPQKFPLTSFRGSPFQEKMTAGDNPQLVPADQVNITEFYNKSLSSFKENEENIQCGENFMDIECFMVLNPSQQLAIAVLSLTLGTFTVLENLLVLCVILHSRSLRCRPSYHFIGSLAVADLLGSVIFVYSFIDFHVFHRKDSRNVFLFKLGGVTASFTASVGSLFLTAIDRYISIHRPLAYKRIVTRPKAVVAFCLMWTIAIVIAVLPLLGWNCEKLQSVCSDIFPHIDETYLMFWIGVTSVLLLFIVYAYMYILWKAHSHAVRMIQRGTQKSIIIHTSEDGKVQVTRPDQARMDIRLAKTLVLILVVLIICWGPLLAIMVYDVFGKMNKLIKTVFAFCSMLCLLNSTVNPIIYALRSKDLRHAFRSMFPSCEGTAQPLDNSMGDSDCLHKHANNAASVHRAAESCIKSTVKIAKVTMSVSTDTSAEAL
- protocol.summary: cell-based
- Set-up: host or cells: CHO-K1
- conditions.used: CB1, PAM mode; read-out: CB1 PAM mode cAMP EC50
quantity.name: pEC50
As a rule, pEC50 stands for the negative log10 of the concentration, concentration in M.

// worked examples, pEC50 included
>>> df
                                   compound  quantitative_readout
0  O=C(O)C(c1ccccc1)c1cn(-c2ccccc2)c2ccccc12 (stereo not drawn)                  5.38
1  CC(CC(c1ccccc1)c1cn(-c2ccccc2)c2ccccc12)C(=O)O (racemic) [Compound 11]                  5.72
2  Cc1ccc2c(C(CCC(=O)O)c3ccccc3)cn(-c3ccccc3)c2c1 (stereo not drawn)                  5.84
3  CC(CC(c1ccccc1)c1cn(-c2ccccc2)c2ccccc12)C(=O)O (racemic) [Compound 12]                  6.15
4  O=C(O)CCC(c1ccccc1)c1cn(-c2ccncc2)c2ccccc12 (stereo not drawn)                  5.97
5  O=C(O)CC=C(c1ccccc1)c1cn(-c2ccccc2)c2ccccc12 (mixture of isomers)                  6.03

Which value of pEC50 has been reported for O=C(O)CCCCC(c1ccccc1)c1cn(-c2ccccc2)c2ccccc12 (stereo not drawn) in the records?
5.96

# pEC50 lookup, item O=C(O)CCCC(c1ccccc1)c1cn(-c2ccccc2)c2ccccc12 (stereo not drawn)
5.85

Please give the measured pEC50 for this compound: O=C(O)CCC(c1ccccc1)c1cn(-c2ccccn2)c2ccccc12 (stereo not drawn)
6.06

Would you mind telling me what pEC50 value was observed for O=C(O)CCC(c1ccccc1)c1cn(-c2cccnc2)c2ccccc12 (stereo not drawn) ?
6.00

State the recorded pEC50 for this entry: O=C(O)CCC(c1ccccc1)c1cn(Cc2ccccc2)c2ccccc12 (stereo not drawn)
6.21

Please report the recorded pEC50 for O=C(O)CC(c1ccccc1)c1cn(-c2ccccc2)c2ccccc12 (stereo not drawn) .
6.29

Query: pEC50; subject: c1ccc(C(Cc2nnn[nH]2)c2cn(-c3ccccc3)c3ccccc23)cc1 (stereo not drawn)
6.37
